- ASSAY NOTES: qHTS to identify inhibitors of the type 1 interferon - major histocompatibility complex class I in skeletal muscle: primary screen against the NCATS Mechanism Interrogation Plate v5.0 (MIPE) Libary (AID 1347411); note: nearly all actives have a fitted effect of over 65% in size
- RECORDED CONDITIONS: iHSKM cells + IFN-b, HiBiT-tagged MHC-I luminescence, 24 h; series mostly up to 45.8 µM
- From the text: Assay Submitter (PI): Travis B. Kinder Ph.D. & James Inglese Ph.D. Assay Development and Screening Technology Laboratory (ADST) National Center for Advancing Translational Sciences (NCATS), Rockville, MD National Institute of Health (NIH), Bethesda, Maryland […] 7; Detector; 5 sec; Measure luminescence with ViewLux 1430 Ultra HTS (Perkin Elmer). […]
Records with an inconclusive call do not appear. Calls of active or inactive are those of the source. Calls come from the whole dose curve; as a rule, active = well fitted inhibition curve with a large enough effect; inconclusive = small, poorly fitted or top-dose-only effect; inactive = no such curve, though single readings can be large or run the other way.
Please state which outcome applies, choosing from active, inactive

Prompt: What was the test verdict on CN1CCN2c3ncccc3Cc3ccccc3C2C1 (stereo not given) ?
Response: inactive

Prompt: What was the test verdict on `COc1nccc(-c2c(-c3ccc(F)cc3)ncn2C2CCNCC2)n1` ?
Response: inactive

Prompt: What was the test verdict on `COc1cc2nccc(Oc3ccc(NC(=O)Nc4ccc(F)cc4F)c(F)c3)c2cc1OC` ?
Response: active

Prompt: What was the test verdict on `Cc1nc2c([nH]1)CCN(C(=O)c1ccc(NC(=O)c3ccccc3-c3ccccc3)cc1)c1ccccc1-2` ?
Response: inactive

Prompt: What was the test verdict on `O=C(Nc1ccc(OC(F)(F)F)cc1)c1sccc1NCc1ccnc2ccccc12` ?
Response: inactive

Prompt: What was the test verdict on `NC(=O)c1noc([C@H](CCCC2CCCCC2)CC(=O)NO)n1` ?
Response: inactive

Prompt: What was the test verdict on `O=[N+]([O-])c1ccc(Nc2ccccc2-c2ccccc2)c2nonc12` ?
Response: active

Prompt: What was the test verdict on `CNC(=O)c1cc(Oc2ccc(NC(=O)Nc3ccc(Cl)c(C(F)(F)F)c3)c(F)c2)ccn1` ?
Response: active

Prompt: What was the test verdict on CCC(c1ccc(O)cc1)C(CC)c1ccc(O)cc1 (stereo not given) ?
Response: inactive

Prompt: What was the test verdict on `CCc1cccc(CC)c1NC(=O)N1Cc2[nH]nc(NC(=O)c3ccc(N4CCN(C)CC4)cc3)c2C1` ?
Response: active

Prompt: What was the test verdict on `COc1cc(F)c(C(C)C)cc1-c1ccc(C(F)(F)F)cc1CN1C(=O)O[C@H](c2cc(C(F)(F)F)cc(C(F)(F)F)c2)[C@@H]1C` ?
Response: inactive

Prompt: What was the test verdict on `COc1nc(C)cnc1NS(=O)(=O)c1cccnc1-c1ccc(-c2nnco2)cc1` ?
Response: inactive

Prompt: What was the test verdict on `O=C(O)CCC=CCC[C@@H]1[C@H](N2CCCCC2)[C@@H](O)C[C@@H]1OCc1ccc(-c2ccccc2)cc1` ?
Response: inactive

Prompt: What was the test verdict on `CCCCC(F)(F)[C@@]1(O)CC[C@H]2[C@H](CC(=O)[C@@H]2CCCCCCC(=O)O)O1` ?
Response: inactive

Prompt: What was the test verdict on CN(C)CCOc1cc(-c2cn[nH]c2)ccc1NC(=O)C1COc2ccccc2O1 (stereo not given) ?
Response: inactive

Prompt: What was the test verdict on `Cn1c(=O)c(Oc2ccc(F)cc2F)cc2cnc(NC3CCOCC3)nc21` ?
Response: inactive

Prompt: What was the test verdict on `Cc1ccc(S(=O)(=O)Nc2nc3ccccc3nc2Nc2ccc3nsnc3c2)cc1` ?
Response: inactive

Prompt: What was the test verdict on `O=C(CC12CC3CC(CC(C3)C1)C2)Nc1cccc2nc(NCCNCCO)ccc12` ?
Response: inactive

Prompt: What was the test verdict on `CCCCC(C)(C)[C@H](O)C=C[C@H]1[C@H](O)CC(=O)[C@H]1CC=CCCCC(=O)O` ?
Response: inactive

Prompt: What was the test verdict on `Cc1ccccc1-n1c(Cn2nc(-c3cccc(O)c3)c3c(N)ncnc32)nc2cccc(C)c2c1=O` ?
Response: active
